Test system: SW-620 colon
Test: NCI-60 one-dose screen, 48 h (100 = growth as untreated, 0 = no growth, -100 = all killed)
Conditions: 10 µM unless noted
Description: Growth inhibition of the SW-620 human tumor cell line is measured as a screen for anti-cancer activity. Cells are grown in 96 well plates and exposed to the test compound for 48 hours. Compounds are tested at a single concentration, which is 10^-5 M for most compounds. The reported endpoint is percent growth (GI% or GIPRCNT), where numbers from 0 - 100% represent growth inhibition, and numbers from -100% - 0 represent cell death. For example, a value of 40 represents 60% growth inhibition. […]
About 83,000 compounds went through this panel and 20% of them were active in at least one assay; those are over-represented in the sample as a whole.
Quick rule: growth of at least 50% means met, below that means not met.

# count of solved cases: 4
compound: O=C(CN1C(=O)/C(=C\c2ccc(Cl)cc2)SC1=S)Nc1ncc(Cc2ccc(Cl)cc2)s1
assayedTarget: SW-620 colon
labelClass: met

compound: c1ccc(CNc2nc(Nc3ccccc3)nc3ccccc23)cc1
assayedTarget: SW-620 colon
labelClass: met

compound: CCOc1ccc2c(c1)CN(Cc1ccc(Cl)cc1)CO2
assayedTarget: SW-620 colon
labelClass: met

compound: CN1C(=O)N(C)C2C1NN=c1s/c(=C\c3ccc(Cl)cc3Cl)c(=O)n12 (stereo unspecified)
assayedTarget: SW-620 colon
labelClass: not met

# bool: growth of "CCN1CCN(c2cc(C)c3cc(NC(=O)c4ccc(OC)c(OC)c4)ccc3n2)CC1" >= 50% not met

Please give the result for "CCn1c(Cc2ccccc2Nc2c(Cl)cccc2Cl)nnc1SCC(=O)NN1C(=O)/C(=C/c2cccc(OC)c2OC)SC1=S" too. met

Please give the result for "Brc1ccc(Oc2ccc(Nc3ncnc4onc(-c5ccccc5)c34)cc2)cc1" too. met

Please give the result for "c1ccc2c(c1)oc1cc3sccc3nc12" too. met

Please give the result for "O=C(CCc1nnc2sc(-c3ccc(Cl)cc3Cl)nn12)c1nc2ncccc2[nH]1" too. not met
